The reported measurements were obtained from patent US20160362487A1.

Target: T1, human IL-33 (R&D Systems, #3625-IL-010/CF) (human, UniProt O95760 112-270)
T1 construct: Commercial recombinant protein; also called hIL-33; interleukin-33
T1 sequence (looked up): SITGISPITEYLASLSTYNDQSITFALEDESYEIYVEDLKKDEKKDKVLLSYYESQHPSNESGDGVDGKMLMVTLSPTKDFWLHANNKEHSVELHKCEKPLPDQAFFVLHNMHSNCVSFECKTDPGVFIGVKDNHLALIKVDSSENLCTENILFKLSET
Experiment: BLI; hIL-33 pre-mixed with mAb-2 Isotype control 2
# mAb-1 Binding to the Pre-complex of mAb-2 & hIL-33 per record follows
I'd appreciate it if you included the unit after the number.

Solved entries:
H4H9629P (antibody, human IgG4, V domains shown, Human IgG4 Fc (H4H)) VH: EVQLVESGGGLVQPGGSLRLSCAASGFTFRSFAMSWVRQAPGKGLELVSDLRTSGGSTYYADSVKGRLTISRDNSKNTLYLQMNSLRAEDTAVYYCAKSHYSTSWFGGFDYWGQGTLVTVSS VL: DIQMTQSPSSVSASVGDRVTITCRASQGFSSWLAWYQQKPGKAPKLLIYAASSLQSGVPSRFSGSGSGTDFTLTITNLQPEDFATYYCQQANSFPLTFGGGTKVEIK :: 0.14 nm
H1M9559N (antibody, mouse IgG1, V domains shown, Human variable domains, mouse IgG1 Fc (H1M)) VH: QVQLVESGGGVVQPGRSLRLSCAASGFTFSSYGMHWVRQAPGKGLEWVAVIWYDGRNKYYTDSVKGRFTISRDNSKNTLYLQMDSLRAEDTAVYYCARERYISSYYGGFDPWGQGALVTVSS VL: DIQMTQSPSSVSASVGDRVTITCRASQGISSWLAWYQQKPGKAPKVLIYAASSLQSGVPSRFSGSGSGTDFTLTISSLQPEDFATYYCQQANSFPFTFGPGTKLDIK :: 0.11 nm
H4H9676P (antibody, human IgG4, V domains shown, Human IgG4 Fc (H4H)) VH: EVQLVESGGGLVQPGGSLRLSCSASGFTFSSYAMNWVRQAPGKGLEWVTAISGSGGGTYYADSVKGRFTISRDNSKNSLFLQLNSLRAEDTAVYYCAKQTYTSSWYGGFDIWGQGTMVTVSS VL: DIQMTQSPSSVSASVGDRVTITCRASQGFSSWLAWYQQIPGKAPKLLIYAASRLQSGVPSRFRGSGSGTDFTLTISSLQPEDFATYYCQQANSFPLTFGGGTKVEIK :: 0.1 nm
H4H9663P (antibody, human IgG4, V domains shown, Human IgG4 Fc (H4H)) VH: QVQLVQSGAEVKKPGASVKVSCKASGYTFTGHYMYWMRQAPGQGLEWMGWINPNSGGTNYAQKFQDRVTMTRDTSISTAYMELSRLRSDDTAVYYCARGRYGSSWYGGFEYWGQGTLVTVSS VL: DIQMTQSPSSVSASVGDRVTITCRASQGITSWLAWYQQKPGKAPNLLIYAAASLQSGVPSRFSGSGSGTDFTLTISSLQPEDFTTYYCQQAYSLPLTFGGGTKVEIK :: 0.09 nm

Measured mAb-1 Binding to the Pre-complex of mAb-2 & hIL-33, H4H9660P (antibody, human IgG4, V domains shown, Human IgG4 Fc (H4H)) VH: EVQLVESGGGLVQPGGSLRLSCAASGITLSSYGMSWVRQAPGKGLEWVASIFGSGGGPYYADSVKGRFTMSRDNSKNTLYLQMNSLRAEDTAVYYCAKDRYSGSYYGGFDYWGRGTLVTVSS VL: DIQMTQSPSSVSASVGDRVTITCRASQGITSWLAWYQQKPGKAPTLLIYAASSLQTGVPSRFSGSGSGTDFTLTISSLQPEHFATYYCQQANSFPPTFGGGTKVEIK : 0.15 nm

Measured mAb-1 Binding to the Pre-complex of mAb-2 & hIL-33, H4H9664P (antibody, human IgG4, V domains shown, Human IgG4 Fc (H4H)) VH: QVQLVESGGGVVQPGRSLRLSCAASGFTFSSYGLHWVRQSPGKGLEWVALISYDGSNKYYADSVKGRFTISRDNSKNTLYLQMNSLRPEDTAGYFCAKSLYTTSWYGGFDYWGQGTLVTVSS VL: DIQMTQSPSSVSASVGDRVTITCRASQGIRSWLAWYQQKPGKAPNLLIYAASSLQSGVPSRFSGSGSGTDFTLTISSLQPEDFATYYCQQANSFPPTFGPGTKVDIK : 0.1 nm

Measured mAb-1 Binding to the Pre-complex of mAb-2 & hIL-33, H4H9662P (antibody, V domains shown, Human IgG4 Fc (H4H)) VH: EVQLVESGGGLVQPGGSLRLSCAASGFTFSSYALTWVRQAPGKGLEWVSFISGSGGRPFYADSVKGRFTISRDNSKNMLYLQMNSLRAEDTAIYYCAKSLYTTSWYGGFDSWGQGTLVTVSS VL: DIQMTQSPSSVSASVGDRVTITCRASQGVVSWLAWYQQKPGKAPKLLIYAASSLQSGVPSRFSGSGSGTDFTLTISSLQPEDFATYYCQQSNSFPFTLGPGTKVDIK : 0.11 nm
